// IRF Lucia reporter activity lookup, one value per entry
tested on: RAW-Dual; test: IRF Lucia reporter activity, fold change vs agonist alone; cytotoxicity flag (confluency mask): cytotoxic (confluency <70% of control); higher = enhanced IRF activity; conditions: agonist: LPS (TLR4) 0.1 ug/mL
Whole data set: some 2,900 compounds, median “IRF Lucia reporter activity, fold change vs agonist alone” near 0.9, cut for the highest 2% near 2.8. Shown is part of a subset that was picked to be rich in the highest values.

- compound: "O=C(Nc1cc(C(F)(F)F)ccc1C(F)(F)F)c1cc(Br)ccc1O (library stock concentration (final ~1000-fold dilution): 10 mM)"
  IRF Lucia reporter activity: 4.46
- compound: "O=c1cc(N2CCOCC2)oc2c(-c3ccccc3)cccc12 (library stock concentration (final ~1000-fold dilution): 10 mM)"
  IRF Lucia reporter activity: 0.393
- compound: "CN1CCC(c2c(O)cc(O)c3c(=O)cc(-c4ccccc4Cl)oc23)C1CO.Cl (stereo unspecified) (library stock concentration (final ~1000-fold dilution): 10 mM)"
  IRF Lucia reporter activity: 0.0242
- compound: "CCOC(=O)c1cnc2ccc(-c3cncc(NS(=O)(=O)c4ccccc4)c3)cn12 (library stock concentration (final ~1000-fold dilution): 10 mM)"
  IRF Lucia reporter activity: 4.78
- compound: "C=C1CCN(C(C)C(O)(Cn2cncn2)c2ccc(F)cc2F)CC1 (stereo unspecified) (library stock concentration (final ~1000-fold dilution): 10 mM)"
  IRF Lucia reporter activity: 2.38
- compound: "CCC1(O)C(=O)OCc2c1cc1n(c2=O)Cc2cc3c(CN(C)C)c(O)ccc3nc2-1.Cl (stereo unspecified) (library stock concentration (final ~1000-fold dilution): 10 mM)"
  IRF Lucia reporter activity: 2.49

* * *

test system: RAW-Dual; test: IRF Lucia reporter activity, fold change vs agonist alone; cytotoxicity flag (confluency mask): not cytotoxic; higher = enhanced IRF activity; details: agonist: LPS (TLR4) 0.1 ug/mL
Over roughly 2,900 compounds, “IRF Lucia reporter activity, fold change vs agonist alone” has its median near 0.9; the highest 2% begin near 2.8. Only a selection was taken, and the highest values are over-represented in it overall.
Assign class by IRF Lucia reporter activity: not lower than 1 means t; lower than 1 means f.

- molecule: "NC1C(O)OC(CO)C(O)C1O (configuration not stated) (library stock concentration (final ~1000-fold dilution): 10 mM)"
  category: "f"
- molecule: "CCC(C)C(=O)OC1CC(C)C=C2C=CC(C)C(CCC3CC(O)CC(=O)O3)C21 (configuration not stated) (library stock concentration (final ~1000-fold dilution): 10 mM)"
  category: "f"
- molecule: "O=c1cc(-c2cccc3c2Sc2ccccc2S3)oc(N2CCOCC2)c1 (library stock concentration (final ~1000-fold dilution): 10 mM)"
  category: "t"
- molecule: "CCn1cc(C(=O)O)c(=O)c2c(N)c(F)c(NC3CCCCC3)cc21 (library stock concentration (final ~1000-fold dilution): 10 mM)"
  category: "f"
- molecule: "CCOC(=O)c1ccc(N)cc1.Cl (library stock concentration (final ~1000-fold dilution): 10 mM)"
  category: "t"
- molecule: "Nc1ccc(C(=O)Nc2cccc(-c3nc(N4CCOCC4)c4oc5ncccc5c4n3)c2)cn1 (library stock concentration (final ~1000-fold dilution): 10 mM)"
  category: "t"
- molecule: "Cc1cnc(Nc2ccc(F)cc2Cl)nc1-c1c[nH]c(C(=O)NC(CO)c2cccc(Cl)c2)c1 (configuration not stated) (library stock concentration (final ~1000-fold dilution): 10 mM)"
  category: "t"
- molecule: "Nc1ccc(-c2cccc(C(=O)Nc3cnc4nc(N5CCOCC5)oc4c3)n2)cn1 (library stock concentration (final ~1000-fold dilution): 10 mM)"
  category: "t"
- molecule: "O=c1cccccc1O (library stock concentration (final ~1000-fold dilution): 10 mM)"
  category: "f"
- molecule: "CCOC(=O)c1ccc(NC2CCCCC2)c(N)c1 (library stock concentration (final ~1000-fold dilution): 10 mM)"
  category: "t"
- molecule: "COc1cc(O)c(C(=O)Nc2nc(C(=O)NCCN(C(C)C)C(C)C)cs2)cc1OC.Cl.O.O.O (library stock concentration (final ~1000-fold dilution): 10 mM)"
  category: "f"
- molecule: "COC(C(=O)N1Cc2[nH]nc(NC(=O)c3ccc(N4CCN(C)CC4)cc3)c2C1)c1ccccc1 (configuration not stated) (library stock concentration (final ~1000-fold dilution): 10 mM)"
  category: "f"
